Catalogue of compounds with associated pIC50
target: UniProt:P05177; assay: CYP inhibition with probe substrate; assay type: in vitro ADME; conditions: coincubation, probe substrate phenacetin; read-out: Co- IC50
Sequence (P05177 whole entry): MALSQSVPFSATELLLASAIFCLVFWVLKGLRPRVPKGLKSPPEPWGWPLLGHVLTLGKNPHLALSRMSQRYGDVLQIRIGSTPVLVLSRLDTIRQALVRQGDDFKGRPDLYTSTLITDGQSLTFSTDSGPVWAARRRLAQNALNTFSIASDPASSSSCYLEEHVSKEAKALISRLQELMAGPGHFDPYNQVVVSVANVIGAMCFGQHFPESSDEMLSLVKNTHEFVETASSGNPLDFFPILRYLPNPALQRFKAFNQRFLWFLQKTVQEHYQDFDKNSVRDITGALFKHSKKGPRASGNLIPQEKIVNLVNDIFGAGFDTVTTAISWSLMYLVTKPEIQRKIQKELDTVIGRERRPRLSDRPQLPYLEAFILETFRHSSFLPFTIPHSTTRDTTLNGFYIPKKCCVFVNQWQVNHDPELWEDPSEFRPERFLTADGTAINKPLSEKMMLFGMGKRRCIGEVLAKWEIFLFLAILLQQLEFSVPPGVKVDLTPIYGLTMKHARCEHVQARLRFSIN
pIC50: −log10 of the molar value.
QUANTITY: pIC50

| COMPOUND | TESTED_TARGET | MEASUREMENT |
| --- | --- | --- |
| CC1CS(=O)(=O)CCN1N (stereo not drawn) | UniProt:P05177 | < 4.00 |
| CC1CS(=O)(=O)CCN1/N=C/c1ccc([N+](=O)[O-])o1 (stereo not drawn) [Nifurtimox, reference compound] | UniProt:P05177 | < 4.30 |
| CC1CS(=O)(=O)CCN1n1cc(SCC(N)C(=O)O)ccc1=O (stereo not drawn) | UniProt:P05177 | < 4.70 |
